- TESTED_ON: human Epidermal Growth Factor Receptor (huEGFR) over-expressed in mcl-1-/- mouse embryonic fibroblasts (human, UniProt P00533 25-1210)
- METHOD_SUMMARY: cell-based or functional assay
I'd be grateful if you could share measured huEGFR^+ mcl-1^-/- MEF EC50 for these entries.
Report as a plain number; the unit nM is understood.

Ask | Give its huEGFR^+ mcl-1^-/- MEF EC50 value. Item: AbK-XW (antibody, V domains shown, synthon XW on reduced interchain Cys) VH: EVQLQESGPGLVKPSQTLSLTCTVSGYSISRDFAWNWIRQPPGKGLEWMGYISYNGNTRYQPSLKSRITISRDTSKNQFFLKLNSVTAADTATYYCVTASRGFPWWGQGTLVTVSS VL: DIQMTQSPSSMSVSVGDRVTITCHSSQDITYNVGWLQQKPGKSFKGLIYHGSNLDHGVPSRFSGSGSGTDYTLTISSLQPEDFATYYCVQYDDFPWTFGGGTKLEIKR
Reply | 0.6

Ask | Reported huEGFR^+ mcl-1^-/- MEF EC50, binder AbK-KZ (antibody, V domains shown, synthon KZ on reduced interchain Cys) VH: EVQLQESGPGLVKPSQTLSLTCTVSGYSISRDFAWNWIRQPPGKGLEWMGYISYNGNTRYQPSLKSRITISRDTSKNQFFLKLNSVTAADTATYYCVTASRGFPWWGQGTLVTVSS VL: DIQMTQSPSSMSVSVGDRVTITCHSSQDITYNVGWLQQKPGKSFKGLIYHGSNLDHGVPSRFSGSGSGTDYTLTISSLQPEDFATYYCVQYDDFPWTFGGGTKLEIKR : ____
Reply | 224

Ask | Which huEGFR^+ mcl-1^-/- MEF EC50 value belongs to AbG-CZ (antibody, V domains shown, synthon CZ on reduced interchain Cys) VH: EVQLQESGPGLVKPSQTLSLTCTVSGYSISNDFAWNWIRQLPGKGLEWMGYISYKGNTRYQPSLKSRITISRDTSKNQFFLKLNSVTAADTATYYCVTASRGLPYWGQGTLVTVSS VL: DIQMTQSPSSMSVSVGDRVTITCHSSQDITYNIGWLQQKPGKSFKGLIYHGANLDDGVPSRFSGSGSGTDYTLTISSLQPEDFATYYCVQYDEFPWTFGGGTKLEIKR ?
Reply | 3.4

Ask | Tell me the measured huEGFR^+ mcl-1^-/- MEF EC50 of AbG-YG (antibody, V domains shown, synthon YG on reduced interchain Cys) VH: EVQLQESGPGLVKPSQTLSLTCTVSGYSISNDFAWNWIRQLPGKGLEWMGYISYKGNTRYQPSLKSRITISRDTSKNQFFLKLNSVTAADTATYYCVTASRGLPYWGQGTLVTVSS VL: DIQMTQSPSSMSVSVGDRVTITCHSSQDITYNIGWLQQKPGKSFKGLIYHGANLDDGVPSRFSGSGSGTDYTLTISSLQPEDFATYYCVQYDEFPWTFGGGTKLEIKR , please.
Reply | 1

Ask | Given the binder AbG-SR (antibody, V domains shown, synthon SR on reduced interchain Cys) VH: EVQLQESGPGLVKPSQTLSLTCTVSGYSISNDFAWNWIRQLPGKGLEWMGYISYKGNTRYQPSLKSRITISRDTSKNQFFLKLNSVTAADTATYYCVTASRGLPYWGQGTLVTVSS VL: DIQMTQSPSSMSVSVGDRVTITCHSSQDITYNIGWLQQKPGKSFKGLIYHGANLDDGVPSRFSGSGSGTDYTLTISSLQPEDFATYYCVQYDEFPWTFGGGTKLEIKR , what is its reported huEGFR^+ mcl-1^-/- MEF EC50?
Reply | 7
